target: T1, huZIP12-ECD-GST (human, UniProt Q504Y0 24-202); assay: SPR single cycle kinetics (Biacore): mAb captured on protein A, huZIP12-ECD-GST injected at 3.12-800 nM
T1 construct: also called hZIP12-ECD-GST; human ZIP12-ECD-GST; not shown: glutathione S-transferase (GST) tag
T1 sequence (Q504Y0 24-202): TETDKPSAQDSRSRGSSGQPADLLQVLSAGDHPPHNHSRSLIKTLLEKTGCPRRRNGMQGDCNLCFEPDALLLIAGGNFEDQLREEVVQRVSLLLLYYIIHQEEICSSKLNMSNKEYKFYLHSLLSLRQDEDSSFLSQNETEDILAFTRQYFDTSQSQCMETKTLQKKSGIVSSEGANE
Readout Label: koff
Number first, unit second: that is the form wanted.

H2_T57H_L2 (antibody, V domains shown, Fc null human IgG1 / human kappa) VH: QVQLVESGGGVVQPGRSLRLSCAASGFTFSDYGMHWVRQAPGKGLEWVAYISSGGTHIYYADTVKGRFTISRDNSKNTLYLQMNSLRAEDTAVYYCARWTNLYAMDYWGQGTTVTVSS VL: DIVLTQSPDSLAVSLGERATINCRASKSVSTSGYSYMHWYQQKPGQPPKFLIYLASNKESGVPDRFSGSGSGTDFTLTISSLQAEDVAVYYCQHSREVPYTFGGGTKVEIKR : 3.78e-05 s⁻¹

query: Please report the measured koff for H2_G66Q_L1 (antibody, V domains shown, Fc null human IgG1 / human kappa) VH: QVQLVESGGGVVQPGRSLRLSCAASGFTFSDYGMHWVRQAPGKGLEWVAYISSGGTTIYYADTVKQRFTISRDNSKNTLYLQMNSLRAEDTAVYYCARWTNLYAMDYWGQGTTVTVSS VL: DIVLTQSPDSLAVSLGERATINCRASKSVSTQGYSYMHWYQQKPGQPPKFLIYLASNLESGVPDRFSGSGSGTDFTLTISSLQAEDVAVYYCQHSREVPYTFGGGTKVEIKR
result: 3.34e-05 s⁻¹

The measurements presented in this section are drawn from patent US20260109761A1.
